Form field: mean nematode size ln(EXT) (ln) (one value per entry).
System: Caenorhabditis elegans N2
test-method-notes: mean nematode size ln(EXT) after 48 h, plate-adjusted (DMSO control set to 6) (ln(EXT), control-adjusted); higher = larger nematodes / less growth inhibition
particulars: 100 µM; exposure time 48 h

>  <compound>
CNc1cnn(-c2cccc(C(F)(F)F)c2)c(=O)c1Cl [Norflurazon]

>  <mean nematode size ln(EXT) (ln)>
5.79

$$$$
>  <compound>
Cn1cc(-c2ccccc2)c(=O)c(-c2cccc(C(F)(F)F)c2)c1 [Fluridone]

>  <mean nematode size ln(EXT) (ln)>
4.25

$$$$
>  <compound>
CCCCC=O [Pentanal]

>  <mean nematode size ln(EXT) (ln)>
6.02

$$$$
>  <compound>
Cc1ccc2ncccc2c1 [6-Methylquinoline]

>  <mean nematode size ln(EXT) (ln)>
5.67

$$$$
>  <compound>
CC(C)COC(=O)CCCCC(=O)OCC(C)C [Diisobutyl adipate]

>  <mean nematode size ln(EXT) (ln)>
4.35

$$$$
>  <compound>
N#Cc1c[nH]cc1-c1cccc2c1OC(F)(F)O2 [Fludioxonil]

>  <mean nematode size ln(EXT) (ln)>
5.27

$$$$
>  <compound>
Cc1ccc(C)c(C)c1 [1,2,4-Trimethylbenzene]

>  <mean nematode size ln(EXT) (ln)>
5.89

$$$$
>  <compound>
CCC(C)c1cc([N+](=O)[O-])cc([N+](=O)[O-])c1O (stereo not given) [Dinoseb]

>  <mean nematode size ln(EXT) (ln)>
5.56

$$$$
>  <compound>
O=C(N[C@H](c1ccccc1)[C@@H]1CN2CCC1CC2)c1c(Cl)ccc(C(F)(F)F)c1Cl

>  <mean nematode size ln(EXT) (ln)>
5.09

$$$$
>  <compound>
Nc1ccc(Cl)cc1N [4-Chloro-o-phenylenediamine]

>  <mean nematode size ln(EXT) (ln)>
5.03

$$$$

---

Tested on: Caenorhabditis elegans N2
test-method-notes: mean nematode size ln(EXT) after 48 h, plate-adjusted (DMSO control set to 6) (ln(EXT), control-adjusted); higher = larger nematodes / less growth inhibition
particulars: 5 µM; exposure time 48 h
Below, each entry is listed with its recorded mean nematode size ln(EXT) (ln).

>  <molecule>
CCn1nc(Cc2ccccc2)cc1C1CCN(C[C@H]2C[C@H](N(C)[C@@H](C(=O)O)C(C)C)C[C@@H]2c2cccc(F)c2)CC1

>  <mean nematode size ln(EXT) (ln)>
5.91

$$$$
>  <molecule>
CCN1CCC2(CC1)COc1cc3c(cc12)N(C(=O)c1ccc(-c2ccc(-c4nnc(C)o4)cc2C)cc1)CC3

>  <mean nematode size ln(EXT) (ln)>
5.74

$$$$
>  <molecule>
N#Cc1cccnc1

>  <mean nematode size ln(EXT) (ln)>
5.61

$$$$
>  <molecule>
CNC(=O)ON=C(C)SC

>  <mean nematode size ln(EXT) (ln)>
6.08

$$$$
>  <molecule>
CCCCCCCC(=O)OC [Methyl octanoate]

>  <mean nematode size ln(EXT) (ln)>
5.85

$$$$
>  <molecule>
Cc1ccccc1Cl

>  <mean nematode size ln(EXT) (ln)>
5.92

$$$$
>  <molecule>
COc1ccccc1N

>  <mean nematode size ln(EXT) (ln)>
5.84

$$$$
>  <molecule>
Cc1ccc(S(=O)(=O)O)cc1C [Sodium xylenesulfonate]

>  <mean nematode size ln(EXT) (ln)>
5.92

$$$$
>  <molecule>
CC(C)(c1ccc(O)cc1)c1ccc(O)cc1

>  <mean nematode size ln(EXT) (ln)>
5.99

$$$$
>  <molecule>
CCSC(=O)N1CCCCCC1 [Molinate]

>  <mean nematode size ln(EXT) (ln)>
5.29

$$$$
>  <molecule>
Cc1ccccc1N

>  <mean nematode size ln(EXT) (ln)>
5.76

$$$$

---

System: Caenorhabditis elegans N2
test-method-notes: lowest effective concentration for larval growth inhibition (size below effect threshold); higher = less potent
particulars: exposure time 48 h
recorded-metric: log10 lowest effective concentration (log10 of the value in µM)

>  <molecule>
O=C(O)C1C(C(=O)O)C2(Cl)C(Cl)=C(Cl)C1(Cl)C2(Cl)Cl (configuration not stated) [Chlorendic acid]

>  <result-number>
2.00

$$$$
>  <molecule>
Cc1ccc(C)c(O)c1C [2,3,6-Trimethylphenol]

>  <result-number>
2.30

$$$$
>  <molecule>
CCOP(=S)(OCC)SCSP(=S)(OCC)OCC [Ethion]

>  <result-number>
0.00

$$$$
>  <molecule>
CCCCCCCCCC[N+](C)(C)CCCCCCCCCC [Didecyl dimethyl ammonium chloride]

>  <result-number>
1.00

$$$$
>  <molecule>
c1ccc2c(c1)-c1cccc3cccc-2c13 [Fluoranthene]

>  <result-number>
0.70

$$$$

---

Tested on: Caenorhabditis elegans N2
test-method-notes: mean nematode size ln(EXT) after 48 h, plate-adjusted (DMSO control set to 6) (ln(EXT), control-adjusted); higher = larger nematodes / less growth inhibition
particulars: 5 µM; exposure time 48 h

>  <compound>
CC/C(=N\OC/C=C/Cl)C1=C(O)CC(C2CCOCC2)CC1=O (stereo not given) [Tepraloxydim]

>  <target-desc>
Caenorhabditis elegans N2

>  <mean nematode size ln(EXT) (ln)>
5.74

$$$$
>  <compound>
O=C(O)c1ccccc1-n1cc(C(=O)O)c(=O)c2cc(Nc3c(F)cc(F)cc3Cl)c(Cl)cc21

>  <target-desc>
Caenorhabditis elegans N2

>  <mean nematode size ln(EXT) (ln)>
5.95

$$$$
>  <compound>
O=[N+]([O-])c1ccc(O)cc1 [4-Nitrophenol]

>  <target-desc>
Caenorhabditis elegans N2

>  <mean nematode size ln(EXT) (ln)>
5.87

$$$$
>  <compound>
CC(C)(C)C(=O)C(Oc1ccc(Cl)cc1)n1cncn1 (stereo not given) [Triadimefon]

>  <target-desc>
Caenorhabditis elegans N2

>  <mean nematode size ln(EXT) (ln)>
5.57

$$$$
>  <compound>
COc1ccc2c(c1)c(CC(=O)O)c(C)n2C(=O)c1ccc(Cl)cc1 [Indomethacin]

>  <target-desc>
Caenorhabditis elegans N2

>  <mean nematode size ln(EXT) (ln)>
5.95

$$$$
>  <compound>
CCCCCCCCCC [Decane]

>  <target-desc>
Caenorhabditis elegans N2

>  <mean nematode size ln(EXT) (ln)>
5.91

$$$$
>  <compound>
O=C1CCC(N2C(=O)c3ccccc3C2=O)C(=O)N1 (stereo not given) [Thalidomide]

>  <target-desc>
Caenorhabditis elegans N2

>  <mean nematode size ln(EXT) (ln)>
5.98

$$$$
>  <compound>
c1ccc2c(c1)ccc1ccccc12 [Phenanthrene]

>  <target-desc>
Caenorhabditis elegans N2

>  <mean nematode size ln(EXT) (ln)>
5.84

$$$$
>  <compound>
CCOP(=S)(OCC)Oc1nc(Cl)c(Cl)cc1Cl [Chlorpyrifos]

>  <target-desc>
Caenorhabditis elegans N2

>  <mean nematode size ln(EXT) (ln)>
4.29

$$$$
>  <compound>
c1ccc2c(c1)Cc1ccccc1-2 [Diphenylenemethane]

>  <target-desc>
Caenorhabditis elegans N2

>  <mean nematode size ln(EXT) (ln)>
6.03

$$$$

---

Measured mean nematode size ln(EXT) (ln) values are reported for all entries that follow.
Tested on: Caenorhabditis elegans N2
test-method-notes: mean nematode size ln(EXT) after 48 h, plate-adjusted (DMSO control set to 6) (ln(EXT), control-adjusted); higher = larger nematodes / less growth inhibition
particulars: 200 µM; exposure time 48 h

>  <compound>
ClC1=C(Cl)[C@]2(Cl)[C@@H]3[C@@H](Cl)[C@H]4O[C@H]4[C@@H]3[C@@]1(Cl)C2(Cl)Cl (single isomer, unassigned; isomer b) [Heptachlor epoxide, isomer B]

>  <mean nematode size ln(EXT) (ln)>
5.11

$$$$
>  <compound>
CC(=O)[C@H]1CC[C@H]2[C@@H]3CCC4=CC(=O)CC[C@]4(C)[C@H]3CC[C@]12C

>  <mean nematode size ln(EXT) (ln)>
5.58

$$$$
>  <compound>
O=C(NC(=O)c1c(F)cccc1F)Nc1ccc(OC(F)(F)C(F)OC(F)(F)F)c(Cl)c1 (stereo not drawn)

>  <mean nematode size ln(EXT) (ln)>
4.56

$$$$
>  <compound>
c1ccc(Nc2ccccc2)cc1

>  <mean nematode size ln(EXT) (ln)>
4.5

$$$$
>  <compound>
O=C(O)C(F)(F)C(F)(F)C(F)(F)C(F)(F)C(F)(F)C(F)(F)C(F)(F)C(F)(F)F

>  <mean nematode size ln(EXT) (ln)>
3.1

$$$$
>  <compound>
CCC[CH2][Sn]([Cl])([CH2]CCC)[CH2]CCC [Tributyltin chloride]

>  <mean nematode size ln(EXT) (ln)>
3.48

$$$$
>  <compound>
CCOC(=O)COc1cc(-n2ncc(C(F)(F)F)c(C)c2=O)c(F)cc1Cl

>  <mean nematode size ln(EXT) (ln)>
5.57

$$$$
>  <compound>
CCCCCCCCCC

>  <mean nematode size ln(EXT) (ln)>
5.75

$$$$
